List of Activity values.
tested on: KBV; experiment: Reversal of Pgp-mediated paclitaxel resistance in human KBV cells assessed as cell viability at 5 uM in presence of paclitaxel incubated for 72 hrs by MTT assay; format: cell-based
Answer format reminder: number followed by unit.

Below are worked cases with known answers.
{"smiles_entry": "CC(C)(O)[C@@H]1CC[C@@](C)([C@H]2CC[C@]3(C)[C@@H]2[C@H](O)C[C@@H]2[C@@]4(C)CC[C@H](OC(=O)[C@@H](N)CCCCN)C(C)(C)[C@@H]4CC[C@]23C)O1", "measured_parameter": "Activity", "value_reported": "98%"}
{"smiles_entry": "CC(C)(O)[C@H]1CC[C@@](C)([C@H]2CC[C@]3(C)[C@@H]2[C@H](O)C[C@@H]2[C@@]4(C)CC[C@H](O)C(C)(C)[C@@H]4CC[C@]23C)O1", "measured_parameter": "Activity", "value_reported": "83%"}

// switching to the query compound
Return reported Activity for target or system KBV, item CC(C)(O)[C@@H]1CC[C@@](C)([C@H]2CC[C@]3(C)[C@@H]2[C@H](O)C[C@@H]2[C@@]4(C)CC[C@H](OC(=O)[C@@H](N)CCC(=O)O)C(C)(C)[C@@H]4CC[C@]23C)O1 . 95%

----------
List of viability at 72 h, 10 µM values.
test: Cytotoxicity against human KBV cells assessed as cell viability at 10 uM incubated for 72 hrs by MTT assay; type: cell-based; conditions: read-out: Activity
Numeric answer only, unit % assumed.

Below are worked cases with known answers.
{"smiles_entry": "CSCC[C@H](N)C(=O)O[C@H]1CC[C@]2(C)[C@H]3C[C@@H](O)[C@@H]4[C@@H]([C@]5(C)CC[C@H](C(C)(C)O)O5)CC[C@@]4(C)[C@]3(C)CC[C@H]2C1(C)C", "unit_abbreviation": "%", "viability at 72 h, 10 µM": 90}
{"smiles_entry": "CC(C)(C)OC(=O)NCCCC[C@H](NC(=O)OC(C)(C)C)C(=O)O[C@H]1CC[C@]2(C)[C@H]3C[C@@H](O)[C@@H]4[C@@H]([C@]5(C)CC[C@@H](C(C)(C)O)O5)CC[C@@]4(C)[C@]3(C)CC[C@H]2C1(C)C", "unit_abbreviation": "%", "viability at 72 h, 10 µM": 123}
{"smiles_entry": "CC(C)(C)OC(=O)NCC(=O)O[C@H]1CC[C@]2(C)[C@H]3C[C@@H](O)[C@@H]4[C@@H]([C@]5(C)CC[C@H](C(C)(C)O)O5)CC[C@@]4(C)[C@]3(C)CC[C@H]2C1(C)C", "unit_abbreviation": "%", "viability at 72 h, 10 µM": 106}
{"smiles_entry": "CC(C)(O)[C@@H]1CC[C@@](C)([C@H]2CC[C@]3(C)[C@@H]2[C@H](O)C[C@@H]2[C@@]4(C)CC[C@H](OC(=O)[C@@H](N)Cc5ccccc5)C(C)(C)[C@@H]4CC[C@]23C)O1", "unit_abbreviation": "%", "viability at 72 h, 10 µM": 100}
{"smiles_entry": "CC(C)(O)[C@H]1CC[C@@](C)([C@H]2CC[C@]3(C)[C@@H]2[C@H](O)C[C@@H]2[C@@]4(C)CC[C@H](OC(=O)[C@@H](N)Cc5c[nH]c6ccccc56)C(C)(C)[C@@H]4CC[C@]23C)O1", "unit_abbreviation": "%", "viability at 72 h, 10 µM": 81}

// switching to the query molecule
# return recorded viability at 72 h, 10 µM for input CC(C)(O)[C@@H]1CC[C@@](C)([C@H]2CC[C@]3(C)[C@@H]2[C@H](O)C[C@@H]2[C@@]4(C)CC[C@H](OC(=O)CN)C(C)(C)[C@@H]4CC[C@]23C)O1 86

----------
tested on: KBV; test: Reversal of Pgp-mediated paclitaxel resistance in human KBV cells assessed as cell viability at 5 uM in presence of paclitaxel incubated for 72 hrs by MTT assay; format: cell-based
measured_parameter: Activity (%)
Numeric answer only, unit % assumed.

Below are worked cases with known answers.
{"smiles_entry": "CC(C)(O)[C@@H]1CC[C@@](C)([C@H]2CC[C@]3(C)[C@@H]2[C@H](O)C[C@@H]2[C@@]4(C)CC[C@H](OC(=O)CN)C(C)(C)[C@@H]4CC[C@]23C)O1", "Activity / %": 98}
{"smiles_entry": "CC(C)(C)OC(=O)N[C@@H](Cc1cn(C(=O)OC(C)(C)C)c2ccccc12)C(=O)O[C@H]1CC[C@]2(C)[C@H]3C[C@@H](O)[C@@H]4[C@@H]([C@]5(C)CC[C@H](C(C)(C)O)O5)CC[C@@]4(C)[C@]3(C)CC[C@H]2C1(C)C", "Activity / %": 165}
{"smiles_entry": "CC(C)(O)[C@@H]1CC[C@@](C)([C@H]2CC[C@]3(C)[C@@H]2[C@H](O)C[C@@H]2[C@@]4(C)CC[C@H](OC(=O)[C@@H](N)CC(=O)O)C(C)(C)[C@@H]4CC[C@]23C)O1", "Activity / %": 110}

// switching to the query compound
# return recorded Activity for input CSCC[C@H](N)C(=O)O[C@H]1CC[C@]2(C)[C@H]3C[C@@H](O)[C@@H]4[C@@H]([C@]5(C)CC[C@@H](C(C)(C)O)O5)CC[C@@]4(C)[C@]3(C)CC[C@H]2C1(C)C 56

----------
assay: Cytotoxicity against human KBV cells assessed as cell viability at 10 uM incubated for 72 hrs by MTT assay; assay type: cell-based; conditions: read-out: Activity
measured_parameter: viability at 72 h, 10 µM (%)
Numeric answer only, unit % assumed.

Below are worked cases with known answers.
{"smiles_entry": "CC(C)(C)OC(=O)NCC(=O)O[C@H]1CC[C@]2(C)[C@H]3C[C@@H](O)[C@@H]4[C@@H]([C@]5(C)CC[C@@H](C(C)(C)O)O5)CC[C@@]4(C)[C@]3(C)CC[C@H]2C1(C)C", "viability at 72 h, 10 µM [%]": 107}
{"smiles_entry": "CC(C)(O)[C@H]1CC[C@@](C)([C@H]2CC[C@]3(C)[C@@H]2[C@H](O)C[C@@H]2[C@@]4(C)CC[C@H](OC(=O)CN)C(C)(C)[C@@H]4CC[C@]23C)O1", "viability at 72 h, 10 µM [%]": 106}
{"smiles_entry": "CSCC[C@H](NC(=O)OC(C)(C)C)C(=O)O[C@H]1CC[C@]2(C)[C@H]3C[C@@H](O)[C@@H]4[C@@H]([C@]5(C)CC[C@@H](C(C)(C)O)O5)CC[C@@]4(C)[C@]3(C)CC[C@H]2C1(C)C", "viability at 72 h, 10 µM [%]": 88}
{"smiles_entry": "CC(C)(O)[C@H]1CC[C@@](C)([C@H]2CC[C@]3(C)[C@@H]2[C@H](O)C[C@@H]2[C@@]4(C)CC[C@H](OC(=O)[C@@H](N)CCCCN)C(C)(C)[C@@H]4CC[C@]23C)O1", "viability at 72 h, 10 µM [%]": 45}
{"smiles_entry": "CC(C)(O)[C@H]1CC[C@@](C)([C@H]2CC[C@]3(C)[C@@H]2[C@H](O)C[C@@H]2[C@@]4(C)CC[C@H](OC(=O)[C@@H](N)Cc5ccc(O)cc5)C(C)(C)[C@@H]4CC[C@]23C)O1", "viability at 72 h, 10 µM [%]": 87}
{"smiles_entry": "CC(C)(C)OC(=O)N[C@@H](Cc1ccc(OC(C)(C)C)cc1)C(=O)O[C@H]1CC[C@]2(C)[C@H]3C[C@@H](O)[C@@H]4[C@@H]([C@]5(C)CC[C@H](C(C)(C)O)O5)CC[C@@]4(C)[C@]3(C)CC[C@H]2C1(C)C", "viability at 72 h, 10 µM [%]": 98}

# return recorded viability at 72 h, 10 µM for input CC(C)(C)OC(=O)C[C@H](NC(=O)OC(C)(C)C)C(=O)O[C@H]1CC[C@]2(C)[C@H]3C[C@@H](O)[C@@H]4[C@@H]([C@]5(C)CC[C@@H](C(C)(C)O)O5)CC[C@@]4(C)[C@]3(C)CC[C@H]2C1(C)C 88

# return recorded viability at 72 h, 10 µM for input CSCC[C@H](N)C(=O)O[C@H]1CC[C@]2(C)[C@H]3C[C@@H](O)[C@@H]4[C@@H]([C@]5(C)CC[C@@H](C(C)(C)O)O5)CC[C@@]4(C)[C@]3(C)CC[C@H]2C1(C)C 100

# return recorded viability at 72 h, 10 µM for input CC(C)[C@H](N)C(=O)O[C@H]1CC[C@]2(C)[C@H]3C[C@@H](O)[C@@H]4[C@@H]([C@]5(C)CC[C@@H](C(C)(C)O)O5)CC[C@@]4(C)[C@]3(C)CC[C@H]2C1(C)C 96

# return recorded viability at 72 h, 10 µM for input CSCC[C@H](NC(=O)OC(C)(C)C)C(=O)O[C@H]1CC[C@]2(C)[C@H]3C[C@@H](O)[C@@H]4[C@@H]([C@]5(C)CC[C@H](C(C)(C)O)O5)CC[C@@]4(C)[C@]3(C)CC[C@H]2C1(C)C 120

# return recorded viability at 72 h, 10 µM for input CC(C)(C)OC(=O)N[C@@H](Cc1ccccc1)C(=O)O[C@H]1CC[C@]2(C)[C@H]3C[C@@H](O)[C@@H]4[C@@H]([C@]5(C)CC[C@H](C(C)(C)O)O5)CC[C@@]4(C)[C@]3(C)CC[C@H]2C1(C)C 125

# return recorded viability at 72 h, 10 µM for input CC(C)(O)[C@@H]1CC[C@@](C)([C@H]2CC[C@]3(C)[C@@H]2[C@H](O)C[C@@H]2[C@@]4(C)CC[C@H](OC(=O)[C@@H](N)Cc5ccc(O)cc5)C(C)(C)[C@@H]4CC[C@]23C)O1 97

# return recorded viability at 72 h, 10 µM for input CC(C)(C)OC(=O)N[C@@H](Cc1cn(C(=O)OC(C)(C)C)c2ccccc12)C(=O)O[C@H]1CC[C@]2(C)[C@H]3C[C@@H](O)[C@@H]4[C@@H]([C@]5(C)CC[C@@H](C(C)(C)O)O5)CC[C@@]4(C)[C@]3(C)CC[C@H]2C1(C)C 137

# return recorded viability at 72 h, 10 µM for input CC(C)[C@H](N)C(=O)O[C@H]1CC[C@]2(C)[C@H]3C[C@@H](O)[C@@H]4[C@@H]([C@]5(C)CC[C@H](C(C)(C)O)O5)CC[C@@]4(C)[C@]3(C)CC[C@H]2C1(C)C 84

# return recorded viability at 72 h, 10 µM for input CC(C)(O)[C@H]1CC[C@@](C)([C@H]2CC[C@]3(C)[C@@H]2[C@H](O)C[C@@H]2[C@@]4(C)CC[C@H](OC(=O)[C@@H](N)CC(=O)O)C(C)(C)[C@@H]4CC[C@]23C)O1 95

# return recorded viability at 72 h, 10 µM for input CC(C)(O)[C@@H]1CC[C@@](C)([C@H]2CC[C@]3(C)[C@@H]2[C@H](O)C[C@@H]2[C@@]4(C)CC[C@H](O)C(C)(C)[C@@H]4CC[C@]23C)O1 81

# return recorded viability at 72 h, 10 µM for input CC(C)(O)[C@@H]1CC[C@@](C)([C@H]2CC[C@]3(C)[C@@H]2[C@H](O)C[C@@H]2[C@@]4(C)CC[C@H](OC(=O)[C@@H](N)CCCCN)C(C)(C)[C@@H]4CC[C@]23C)O1 81

# return recorded viability at 72 h, 10 µM for input CC(C)[C@H](NC(=O)OC(C)(C)C)C(=O)O[C@H]1CC[C@]2(C)[C@H]3C[C@@H](O)[C@@H]4[C@@H]([C@]5(C)CC[C@H](C(C)(C)O)O5)CC[C@@]4(C)[C@]3(C)CC[C@H]2C1(C)C 120
